- Tested on: SNB-75
- procedure-details: NCI tumour cell line growth inhibition, 48 h
Active and inactive are the calls of the source. Cut-off read from the data, not from the text of the source: active = GI50 up to about 1.1 µM and inactive = higher.
measured-parameter: GI50

Some solved entries appear below for comparison.
{"compound": "CC(=O)c1sc2c(c1OC(=O)c1cccs1)c(=O)n(-c1ccccc1)c(=S)n2-c1ccccc1", "result": "29.4 µM (inactive)"}
{"compound": "COC(=O)c1cc(C(=O)OC)cc(-c2ccc3c(c2)-c2nc4c(c(-c5ccc(OC)cc5)c2CC3)CCc2ccc(-c3cc(C(=O)OC)cc(C(=O)OC)c3)cc2-4)c1", "result": "> 100 µM (inactive)"}
{"compound": "O=C(Nc1ccc2ncccc2c1)Nc1ccc2ncccc2c1", "result": "> 100 µM (inactive)"}
{"compound": "CC(=O)CC1(O)C(=O)c2c(Br)sc(Br)c2C1=O", "result": "59.7 µM (inactive)"}
{"compound": "C[N+](C)(C)CCOP(=O)(O)OP(=O)([O-])OCC1CCC(n2ccc(N)nc2=O)O1 (stereo not drawn)", "result": "> 100 µM (inactive)"}
{"compound": "COc1ccc([C@@H]2OC(=O)C3C2C(=O)O[C@H]3c2ccc(OC)c(OC)c2)cc1OC (stereo partly drawn)", "result": "81.5 µM (inactive)"}

Task: Need GI50 of CC1(C)OC(COCCOCCCCCO)C(COCCOCCCCCO)O1 (stereo not drawn) , thanks.
Result: > 100 µM (inactive)

Task: What do we get for Cc1ccc2c(=O)c3c(O)c4c(cc3n(C)c2c1)OC(C)(C)C=C4 ?
Result: > 10 µM (inactive)

Task: What do we get for N=C(N)n1nc2c(c1O)CCC2 ?
Result: > 100 µM (inactive)

Task: What do we get for Cc1cc2nc3ccccc3n2c2ccccc12 ?
Result: > 10 µM (inactive)

Task: What do we get for COC1=C(Br)C(=O)c2nc(C)ccc2C1=O ?
Result: 19.2 µM (inactive)

Task: What do we get for COc1ccc(C(=O)c2ccc(-n3cc(/C=C/[N+](=O)[O-])c4ccccc43)cc2)cc1 ?
Result: 91 µM (inactive)

Task: What do we get for Nc1nc(-c2ccccc2)c(-c2ccccc2)c(-c2nc(N)nc(-c3ccccc3)c2-c2ccccc2)n1 ?
Result: 88.7 µM (inactive)

----------
- Test system: MCF7
- procedure-details: NCI tumour cell line growth inhibition, 48 h
Activity calls are given as the source filed them. No stated cut-off is given here; in the data, active = GI50 up to about 1.1 µM and inactive = higher.
Select the correct class. Options are 1.0 for active, 0.0 for inactive and nothing else.

{"compound": "CCOC(=O)N1CCN(c2c(N)nc(C)nc2O)CC1", "tested-target": "MCF7", "qualitative-label": 0.0}
{"compound": "CC1=CC(=O)/C(=C/Nc2nc(-c3ccc([N+](=O)[O-])cc3)cs2)C(=O)O1", "tested-target": "MCF7", "qualitative-label": 0.0}
{"compound": "COc1cc(N(CCC#N)CCC#N)ccc1C(/N=N/c1cccc(C)c1)=N\\NC(=O)c1ccc(C)cc1", "tested-target": "MCF7", "qualitative-label": 0.0}
{"compound": "CCOC(=O)CC1(Cc2ccc(OCc3ccccc3)cc2)C(=O)OC(c2ccccc2)N1C(=O)c1ccccc1 (stereo unspecified)", "tested-target": "MCF7", "qualitative-label": 0.0}
{"compound": "CCCCCCCCCCCCOC1C(COCCN2CCCC2)OC2OC(C)(C)OC21 (stereo unspecified)", "tested-target": "MCF7", "qualitative-label": 0.0}

Task: Check the results log: what was the call for CC(=O)OC12CC(C)C3(O)C4C=C(C)C(=O)[C@@]4(O)CC(CO)=C[C@H]3C1C2(C)C (stereo partly specified) ?
Result: 0.0

Task: What do we get for c1cc2nnc1SCCSCCSc1ccc(nn1)SCCSCCS2 ?
Result: 0.0

Task: What do we get for CN(C)CCn1c(=O)c2ccc3c4c(nn3CCN(C)C)c3cc([N+](=O)[O-])ccc3n(c1=O)c24 ?
Result: 1.0

Task: What do we get for CCC1(c2ccccc2)C(=O)N=C(c2ccccc2)N1CCc1ccccc1 (stereo unspecified) ?
Result: 0.0

----------
- Tested on: NCI-H460
- procedure-details: NCI tumour cell line growth inhibition, 48 h
Calls of active or inactive are those of the source. No stated cut-off is given here; in the data, active = GI50 up to about 1.1 µM and inactive = higher.
Select the correct class. Options are active, inactive and nothing else.

# count of solved cases: 5
{"compound": "O=C1C=CC2CCC1C2 (configuration not stated)", "qualitative-label": "inactive"}
{"compound": "N[C@H]1CCN(c2c(F)cc3c(=O)c(C(=O)O)cn4c3c2Oc2c-4ccc3c2ccc2ccccc23)C1", "qualitative-label": "active"}
{"compound": "O=c1c(-c2ccccc2)c(SCCO)n(-c2ccccc2)c(=S)n1-c1ccccc1", "qualitative-label": "inactive"}
{"compound": "N=C(N)n1nc2c(c1O)CCC2", "qualitative-label": "inactive"}
{"compound": "COc1ccc(N(CN2C(=O)CCC2OC)C(C)=O)cc1 (configuration not stated)", "qualitative-label": "inactive"}

Task: Check the results log: what was the call for CC1(C)N=C(N)N=C(N)N1c1ccc(OCCCOc2ccccc2)c(Cl)c1 ?
Result: active

Task: What do we get for OCCN(CO)CO ?
Result: inactive

Task: What do we get for O=C(O)Cc1c[nH]c2ccc(F)cc12 ?
Result: inactive

Task: What do we get for C=CCOc1ccc2c(C)cc(=O)oc2c1C ?
Result: inactive

----------
- Tested on: SK-OV-3
- procedure-details: NCI tumour cell line growth inhibition, 48 h
The source made the active and inactive calls. No stated cut-off is given here; in the data, active = GI50 up to about 1.1 µM and inactive = higher.
measured-parameter: GI50

{"compound": "Cc1ns/c(=N\\C(=S)N(C)C)n1C", "GI50": "> 100 µM (inactive)"}
{"compound": "COc1ccc2nc3ccc(OC)cc3c([S+]([O-])CCCl)c2c1 (stereo unspecified)", "GI50": "20.7 µM (inactive)"}
{"compound": "O=C1NN=C(c2ccc(Cl)cc2)CC1C1C(=O)N(c2ccccc2)N=C1c1ccccc1 (stereo unspecified)", "GI50": "39.5 µM (inactive)"}

Task: Need GI50 of CC(C)(C)OC(=O)NNC(=O)C1Cc2ccccc2OC1=O (stereo unspecified) , thanks.
Result: > 100 µM (inactive)

Task: What do we get for O=C1CCC(=O)N1Sc1ccccc1 ?
Result: > 100 µM (inactive)

Task: What do we get for N#CC(C(=O)CCC(=O)Nc1cccc(Cl)c1)c1ccccc1 (stereo unspecified) ?
Result: > 100 µM (inactive)

----------
- System: SK-OV-3
- procedure-details: NCI tumour cell line growth inhibition, 48 h
Active and inactive are the calls of the source. No stated cut-off is given here; in the data, active = GI50 up to about 1.1 µM and inactive = higher.
Consider the following compounds and their measured GI50 readings.

Some solved entries appear below for comparison.
{"compound": "c1ccc2c(c1)n1nnnc1c1nnnn21", "result": "> 100 µM (inactive)"}
{"compound": "CC(=O)OC1(C#N)CC2OC1C1C2N1C(=O)c1ccccc1 (stereo not given)", "result": "> 100 µM (inactive)"}
{"compound": "CC(=O)OC1COC(N2CCc3cc([N+](=O)[O-])ccc32)C(OC(C)=O)C1OC(C)=O (stereo not given)", "result": "> 100 µM (inactive)"}
{"compound": "O=C1Nc2ccccc2S/C1=C\\c1ccccc1C(F)(F)F", "result": "89.5 µM (inactive)"}
{"compound": "O=C(c1cc2ccccc2[nH]1)N1C2CCC1CN(CCOC(c1ccc(F)cc1)c1ccc(F)cc1)CC2 (stereo not given)", "result": "> 100 µM (inactive)"}

Task: Need GI50 of COc1ccc([C@]23CCC4(OCC(C)(C)CO4)[C@H]4CON(O[C@H](O[C@@H]5CCCCC5C(C)(C)c5ccccc5)C2)[C@@H]43)cc1OC (stereo not given in full) , thanks.
Result: 78.3 µM (inactive)

Task: What do we get for Nc1nc(-c2ccccc2)c(-c2ccccc2)c(-c2nc(N)nc(-c3ccccc3)c2-c2ccccc2)n1 ?
Result: > 100 µM (inactive)

Task: What do we get for O=C(N/N=C(/c1nc2ccc(Cl)cc2[nH]c1=O)C(O)c1ccc(Cl)cc1Cl)c1ccncc1 (stereo not given) ?
Result: > 100 µM (inactive)

Task: What do we get for COc1cccc2cc(C(=O)Nc3ccccc3)c(=N)oc12 ?
Result: > 64 µM (inactive)

----------
- System: SNB-75
- procedure-details: NCI tumour cell line growth inhibition, 48 h
Activity calls are given as the source filed them. No stated cut-off is given here; in the data, active = GI50 up to about 1.1 µM and inactive = higher.
Select the correct class. Options are active, inactive and nothing else.

# count of solved cases: 5
{"compound": "C=C1C(=O)[C@]23[C@H](O)[C@H]1CC[C@H]2[C@@]12CO[C@@]3(O)C[C@@H]1C(C)(C)CC[C@@H]2O [MEGATHYRIN A]", "qualitative-label": "inactive"}
{"compound": "CCc1cccc(CC)c1Nc1nc2c(s1)C(=O)c1ccccc1C2=O", "qualitative-label": "inactive"}
{"compound": "O=C1NC(S(=O)(=O)O)=NNC12c1ccccc1-c1ccccc12", "qualitative-label": "inactive"}
{"compound": "O=C(/C=C\\Nc1ccccc1O)C(F)(F)F", "qualitative-label": "inactive"}
{"compound": "CCCC[N+](CCCC)(CCCC)CCCC.O=S(=O)([O-])ON=C1c2ccccc2-c2ccccc21", "qualitative-label": "inactive"}

Task: Check the results log: what was the call for COc1ccc(/C=C2\CCC(CNc3ccc(S(N)(=O)=O)cc3)C2=O)cc1 (stereo unspecified) ?
Result: inactive

Data provenance: ChEMBL document CHEMBL1201862
